- Tested on: P388 leukemia ip, CD2F1 mice, survival T/C
- EXPERIMENT: NCI In Vivo Anticancer Drug Screen. Data for tumor model P388 Leukemia (intraperitoneal) in CD2F1 (CDF1) mice
- CONDITIONS: endpoint: median survival time; dose: 6.25 mg/kg/injection; schedule: Q01DX009 (ip); vehicle: saline
Toxic doses and inconclusive results are not listed. How the source made its calls: active means survival T/C of 150% or more; inactive means T/C below 125% in these data.
API: response.call in active, inactive

The following molecules have reported results that may help.
>  <MOLECULE>
[Cl][Al]([Cl])[Cl]

>  <ASSIGNED_CATEGORY>
inactive

$$$$
>  <MOLECULE>
NC(=S)N/N=C\c1nccc2ccccc12

>  <ASSIGNED_CATEGORY>
inactive

$$$$
>  <MOLECULE>
CC(NCCc1ccccc1)C1CCOC1=O (centres undefined)

>  <ASSIGNED_CATEGORY>
inactive

$$$$

I would be grateful if you could indicate the recorded call for CC[N+]1(CC)CCCCC1 .
inactive

# lookup: test call for CC[n+]1c(-c2ccccc2)c2cc(N)ccc2c2ccc(N)cc21
active

Which outcome was entered for the molecule [Cl][Fe]([Cl])([Cl])[Cl].c1ccc(C[n+]2ccccc2)cc1 in this test?
inactive

Recorded test outcome, item CC(=O)Oc1ccc2c3c1O[C@H]1[C@@H](OC(C)=O)C=C[C@H]4[C@@H](C2)N(C)CC[C@@]341
inactive

Write down the call the test reported for this molecule. Item: CN(C)c1ccc(N=Cc2cc[n+](C)cc2)cc1
inactive

Call for entry CCOC(=O)c1ccc(N2C(=O)C=CC2=O)cc1 :
inactive

* * *

- Tested on: P388 leukemia ip, CD2F1 mice, survival T/C
- EXPERIMENT: NCI In Vivo Anticancer Drug Screen. Data for tumor model P388 Leukemia (intraperitoneal) in CD2F1 (CDF1) mice
- CONDITIONS: endpoint: median survival time; dose: 100.0 mg/kg/injection; schedule: Q04DX002 (ip); vehicle: Klucel (hydroxypropylcellulose) (HPC); higher = longer survival
Toxic doses and inconclusive results are not listed.
# Lookup of reported T/C keyed by entry

# query: T/C of entry Nc1ccc(S(=O)(=O)n2c(=O)oc3ccc(Br)cc32)cc1
93 % of control

Quick one: T/C of O=c1c(CO)c(-c2ccccc2)oc2ccccc12 ?
115 % of control

T/C for C=C1CC2(CCCCC2c2ccccc2)OC1=O (configuration not stated) ?
97 % of control

Suppose we examine the compound C=CCNC(=O)/C(C)=C(\C)c1ccccc1 ; what T/C value has been reported?
102 % of control

Report T/C for Cc1ccc2c(c1)N=C(OCCCN(C)C)/C(=C/c1ccccc1)O2 please.
99 % of control

Suppose we examine the compound C=C(C(=O)N(C(C)C)C(C)C)C(C)C(C)(C)O (configuration not stated) ; what T/C value has been reported?
101 % of control

* * *

- System: P388 leukemia ip, CD2F1 mice, survival T/C
- EXPERIMENT: NCI In Vivo Anticancer Drug Screen. Data for tumor model P388 Leukemia (intraperitoneal) in CD2F1 (CDF1) mice
- CONDITIONS: endpoint: median survival time; dose: 12.5 mg/kg/injection; schedule: Q01DX009 (ip); vehicle: water
Inconclusive results and toxic doses are left out. How the source made its calls: active means survival T/C of 150% or more; inactive means T/C below 125% in these data.
Respond using exactly one of the listed classes: YES (active), NO (inactive)

Identify the outcome logged in this assay for the molecule shown: CCN(CC)CCCC(C)NS(=O)(=O)c1cccc2c(N(C)C)cccc12 (stereo unspecified)
NO

What did the test return for COc1cccc2c1C(=O)c1c(O)c3c(c(O)c1C2=O)CC(O)(/C(C)=N/NS(=O)(=O)c1ccc(C)cc1)CC3OC1CC(N)C(O)C(C)O1 (stereo unspecified) ?
YES

Identify the outcome logged in this assay for the molecule shown: COc1ccc([N+]2=Cc3cc(OC)c(OC)cc3CC2)cc1OC
NO

For O=NNc1nc2ccccc2[nH]1 , what call appears in the results of this test?
NO

# fetch the recorded call for O=C(O)c1nnc(C(=O)O)nn1 here
NO

// param item: COc1ccc(C(O)c2ncccc2C)cc1OC (stereo unspecified) ; yields the recorded call
NO

* * *

- Test system: P388 leukemia ip, CD2F1 mice, survival T/C
- EXPERIMENT: NCI In Vivo Anticancer Drug Screen. Data for tumor model P388 Leukemia (intraperitoneal) in CD2F1 (CDF1) mice
- CONDITIONS: endpoint: median survival time; dose: 50.0 mg/kg/injection; schedule: Q01DX005 (ip); vehicle: saline; higher = longer survival
Inconclusive results and toxic doses are left out. Square brackets hold non-standard residues; d marks the D form. Peptide text beside a SMILES is read from it. ξ: configuration not given here. ξAbu = CCC(N)C(=O)O
ASSAY_METRIC: T/C

# count of solved cases: 10
>  <COMPOUND>
CN(C)C(=O)CC(O)c1ccccc1 (configuration not stated)

>  <T/C>
102 % of control

$$$$
>  <COMPOUND>
NC(=O)NCP(=O)(CNC(N)=O)CNC(N)=O

>  <T/C>
100 % of control

$$$$
>  <COMPOUND>
CC(C)C(O)(C(=O)OCC1=CCN2CCC(O)C12)C(C)O (configuration not stated)

>  <T/C>
103 % of control

$$$$
>  <COMPOUND>
CCN(CC)CCOc1ccc(/C=C(\C)C(C)=O)cc1

>  <T/C>
94 % of control

$$$$
>  <COMPOUND>
CCN(CC)CC(CN(CC)CC)N(CCO)CC(C)C

>  <T/C>
93 % of control

$$$$
>  <COMPOUND>
NC(N)=NC(=O)c1ccccc1

>  <T/C>
100 % of control

$$$$
>  <COMPOUND>
CC(=O)C(C(=O)CCSCC(N)C(=O)O)C(SCC(N)C(=O)O)c1ccc(Cl)c(Cl)c1 (configuration not stated)

>  <T/C>
103 % of control

$$$$
>  <COMPOUND>
CCC(N)C(=O)NCC(=O)NCC(=O)O (stereo not drawn) (H-[ξAbu]-Gly-Gly-OH)

>  <T/C>
103 % of control

$$$$
>  <COMPOUND>
CN(C)CCC(=O)C(=Cc1ccccc1)C(=O)CCN(C)C

>  <T/C>
114 % of control

$$$$
>  <COMPOUND>
CC(CC(=O)O)C(N)C(=O)O (configuration not stated)

>  <T/C>
96 % of control

$$$$

Name the recorded T/C for COC(=N)CCCCC(=N)OC .
92 % of control

Give the measured T/C of O=C(Nc1ccccc1C1=NCCN1)Nc1ccccc1C1=NCCN1 .
100 % of control

Entry under review: CC(=O)SSC(C)(C)C . Reported T/C?
105 % of control

Can you look up the measured T/C of Cc1cc(S(=O)(=O)O)ccc1N=c1ccc2c(-c3ccccc3C(=O)O)c3ccc(Nc4ccccc4C)cc3oc-2c1 for me?
88 % of control

# lookup: T/C of COC(=O)C1C(COS(C)(=O)=O)ON2CCC(OC)(OC)C12 (configuration not stated)
95 % of control

# input compound: C[S+]1CCC(C(=O)[O-])N1 (configuration not stated) ; wanted: its T/C
101 % of control

So what does the record say about T/C for CN1CCOC(N2CCOCC2)C(C)(C)C1 (configuration not stated) ?
92 % of control

Requested field: T/C. Item: CSCCCNCc1ccccc1
100 % of control

I have this compound here, NC(Cc1ccc(O)c(Cl)c1)C(=O)O (configuration not stated) , and I need its recorded T/C.
98 % of control

Quick one: T/C of CN(CCO)c1ncnc2c1ncn2C ?
99 % of control

Given the entry O=S(=O)(O)c1ccc(OCCCCCCCCOc2ccc(S(=O)(=O)O)cc2)cc1 , report its measured T/C.
112 % of control

Quick check: T/C of Nc1nnc2nc(C(C(=O)c3ccccc3)c3nc4nnc(N)n4[nH]c3=O)c(=O)[nH]n12 ?
102 % of control

Query: T/C; subject: OC1CC2CCC(C1)N2c1ccccc1 (configuration not stated)
115 % of control

So what's the measured T/C for this one? O=C1C(O)=C(Cl)C(=O)C(O)=C1Cl
110 % of control

Look at this compound and give its reported T/C. CCN(CC)CCOC(=O)c1cc2cc3cc(C(=O)OCCN(CC)CC)c(=O)oc3c(C)c2oc1=O
113 % of control

If you can, please state the reported T/C value of NC(CCC(=O)O)C(=O)NC(CCC(=O)O)C(=O)O (stereo not drawn) (H-Glu-Glu-OH; configuration not given here) .
97 % of control

// query T/C value for entry CC(ON)C(=O)O (configuration not stated)
99 % of control

* * *

- System: P388 leukemia ip, CD2F1 mice, survival T/C
- EXPERIMENT: NCI In Vivo Anticancer Drug Screen. Data for tumor model P388 Leukemia (intraperitoneal) in CD2F1 (CDF1) mice
- CONDITIONS: endpoint: median survival time; dose: 25.0 mg/kg/injection; schedule: Q04DX003 (ip); vehicle: saline; higher = longer survival
Inconclusive results and toxic doses are left out.
ASSAY_METRIC: T/C

In the examples that follow, each entry is paired with its recorded T/C.
>  <COMPOUND>
CCN(CC)CCC[Si]1(C)c2ccccc2CCc2ccccc21

>  <TARGET_OF_ASSAY>
P388 leukemia ip, CD2F1 mice, survival T/C

>  <ASSAY_METRIC>
T/C

>  <VAL>
111 % of control

$$$$
>  <COMPOUND>
O=c1[nH]c(=O)n(COCc2ccccc2)cc1F

>  <TARGET_OF_ASSAY>
P388 leukemia ip, CD2F1 mice, survival T/C

>  <ASSAY_METRIC>
T/C

>  <VAL>
98 % of control

$$$$

Looking for the measured T/C of N=C(N)c1ccc(-c2[nH]c3cc(C(=N)N)ccc3c2N)cc1 , can you help?
92 % of control

Query (compound): CC[n+]1c(-c2ccccc2)c2cc(N)ccc2c2ccc(N)cc21 ; field requested: T/C
117 % of control
